Read-out: Interleukin-1 alpha (IL1a), IL1A (gene 3552)
Experiment Description: BSK_BE3C_IL1a: BioMAP Diversity Plus: BE3C Assay for Interleukin-1 alpha (IL1a) Biomarker Activity (AID 2283016)
Condition Set: primary human bronchial epithelial cells; actives raise or lower the signal
The source made the active and inactive calls. How the source made its calls: active means hit-call score of the fitted dose curve at least 0.9, where 1 is the maximum; inactive means score below 0.9.
Thanks in advance; please answer with one of these: active, inactive

Solved entries:
>>> df
                                   compound  assigned_category
0  OCC(F)(F)OC(F)(F)C(F)(F)OC(F)(F)C(F)(F)OC(F)(F)F           inactive
1                          CC(Cl)(Cl)C(=O)O           inactive
2                             Cc1ccc(O)cc1C           inactive

Please state the recorded outcome for this compound: `Nc1ccc(Cl)cc1`
inactive

Please state the recorded outcome for this compound: `O=C(O)C(Cl)Cl`
inactive

* * *

Experiment Description: BSK_SAg_Proliferation: Cell Proliferation Assessment in the BioMAP Diversity Plus: SAg Assay (AID 2283095);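 further: relative cell number as total protein by SRB absorbance in sub-confluent culture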
Condition Set: primary human HUVEC with PBMC
Calls of active or inactive are those of the source. Rule for the calls: active = hit-call score of the fitted dose curve at least 0.9, where 1 is the maximum; inactive = score below 0.9.
Thanks in advance; please answer with one of these: active, inactive

Solved entries:
In [3]: df
Out[3]:
                                   compound  assigned_category
0                            CCOP(=S)(S)OCC           inactive
1                 CC(C)Nc1ccc(Nc2ccccc2)cc1             active
2  CCCCN(CCCC)SN(C)C(=O)Oc1cccc2c1OC(C)(C)C2             active

Please state the recorded outcome for this compound: `CCCCOCCOP(=O)(OCCOCCCC)OCCOCCCC`
inactive

Please state the recorded outcome for this compound: `O=C(O)C(F)(F)C(F)(F)C(=O)O`
inactive

Please state the recorded outcome for this compound: `c1nc[nH]n1`
inactive

Please state the recorded outcome for this compound: ClC1=C(Cl)C2(Cl)C3C(Cl)C(Cl)CC3C1(Cl)C2(Cl)Cl (stereo not given)
active

Please state the recorded outcome for this compound: `OCC(F)(F)OC(F)(F)C(F)(F)OC(F)(F)CO`
inactive

* * *

Read-out: Interferon-gamma inducible Protein 10 (IP10), CXCL10 (gene 3627)
Experiment Description: BSK_hDFCGF_IP10: BioMAP Diversity Plus: hDFCGF Assay for Interferon-gamma inducible Protein 10 (IP10) Biomarker Activity (AID 2283053)
Condition Set: primary human foreskin fibroblasts; actives raise or lower the signal
Calls of active or inactive are those of the source. The calls were made as follows: active = hit-call score of the fitted dose curve at least 0.9, where 1 is the maximum; inactive = score below 0.9.
Reported Metric: AC50

>>> df
                                   molecule  reported_metric  experimental_result
0                  Cc1ccc([N+](=O)[O-])cc1C             AC50             inactive
1                             CSC(C)(C)C=NO             AC50             inactive
2  OCC(F)(F)OC(F)(F)C(F)(F)OC(F)(F)C(F)(F)OC(F)(F)F             AC50             inactive
3                          CC(Cl)(Cl)C(=O)O             AC50             inactive
4                N#Cc1cc([N+](=O)[O-])ccc1N             AC50             inactive
5                              Cc1cccc(N)c1             AC50             inactive
6                       ClC(Cl)(Cl)c1ccccc1             AC50             inactive
7  CCOP(=S)(Oc1ccc([N+](=O)[O-])cc1)c1ccccc1 (configuration not stated)             AC50       20 µM (active)
8  ClC1=C(Cl)C2(Cl)C3C(Cl)C(Cl)CC3C1(Cl)C2(Cl)Cl (configuration not stated)             AC50     7.58 µM (active)
9                     c1ccc2c(c1)sc1ccccc12             AC50             inactive

Reported AC50 for `O=S(=O)(F)C(F)(F)C(F)(F)C(F)(F)C(F)(F)C(F)(F)C(F)(F)C(F)(F)C(F)(F)F` : what is it?
inactive

Reported AC50 for `CC(C)(C)c1ccc(O)cc1` : what is it?
inactive
